Biological target: T1, 4H390-AA
T1 chain: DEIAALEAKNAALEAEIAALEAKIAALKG
Experiment: two-hybrid library CCmax;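 note: natural log of median RNA to DNA barcode read ratio; higher means stronger binding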
Conditions: mean of both orientations
assay-endpoint: interaction score

As a guide, the following entries are already answered.
DKIAALEAKNAALKAEIAALKAKNAALKG [4H2512-AA] : 0.0427
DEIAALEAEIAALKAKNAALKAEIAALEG [4H121-AA] : 1.2
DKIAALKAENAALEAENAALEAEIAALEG [4H2705-AA] : -0.544
DKIAALKAKIAALEAKNAALKAEIAALEG [4H2873-AA] : 2.21
DKNAALEAKIAALKAENAALEAEIAALEG [4H3409-AA] : -1.28

(A) DKIAALKAEIAALKAKNAALKAKNAALEG [4H2687-AA]
(B) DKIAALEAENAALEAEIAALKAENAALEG [4H2187-AA]
(C) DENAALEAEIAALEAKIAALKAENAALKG [4H1068-AA]
Problem: Returns the items ordered by interaction score, from maximum to minimum. Record the ranking as a list of labels in the requested order.
Solution: B, C, A
(B: 0.639, C: -0.217, A: -1.43)

(I) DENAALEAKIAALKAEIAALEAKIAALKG [4H1350-AA]
(II) DEIAALEAKIAALEAENAALEAKIAALKG [4H278-AA]
Problem: Of the pair I and II , name the member with the lesser recorded interaction score. Label of pick, please.
Solution: I
(I: 0.523, II: 1.6)

The measured values listed here are drawn from paper PMC10397247.
